- Tested on: NCI-H23 lung
- Protocol Details: NCI-60 one-dose screen, 48 h (100 = growth as untreated, 0 = no growth, -100 = all killed)
- Condition Context: 10 µM unless noted
This is part of a sample that, as a whole, favours compounds with a hit. Of some 83,000 tested, about 20% had one in any assay.
Endpoint Label: growth (%)

# Compound, Endpoint Label, Measured Result
data = [
    ("O=C1Nc2ccc(F)cc2/C1=C\\C(=O)c1ccc(NS(=O)(=O)c2ccccc2)cc1", "growth", 84.3),
    ("COc1cc2oc(-c3cccc(NC(=O)c4cccc([N+](=O)[O-])c4)c3)cc(=O)c2c(OC)c1OC", "growth", 69),
    ("COc1ccc(/C=N/NC(=O)CSc2nc(-c3cnccn3)cc(-c3cccs3)c2C#N)cc1", "growth", 72.8),
    ("O=C(/C=C/c1cc(Cl)ccc1Cl)Nc1ncc(Cc2ccc(Cl)cc2)s1", "growth", 16.7),
    ("O=C(O)c1ccc(-n2c(=O)n(-c3cccc(C(F)(F)F)c3)c(=O)c3cc(-c4ccc(F)cc4F)ccc32)cc1", "growth", -4.43),
    ("COC(=O)c1cccc(NC2=C(Cl)C(=O)c3nc(C)ccc3C2=O)c1", "growth", 53.1),
    ("Cc1ccc2c(n1)C(=O)C(Cl)=C(Nc1ccc(C(F)(F)F)cc1)C2=O", "growth", 68.5),
    ("C#C[C@]1(O)CC[C@H]2[C@@H]3CC=C4c5sc(N6CCN(C)CC6)nc5CC[C@]4(C)[C@H]3CC[C@@]21C", "growth", 57),
    ("CN1CCN(CC#CCn2c3c(c4ccccc42)C[C@]2(C)[C@H]4CC=C5[C@@H]6CC(C)(C)CC[C@]6(C(=O)N6CCOCC6)CC[C@@]5(C)[C@]4(C)CC[C@H]2C3(C)C)CC1", "growth", 74),
    ("O=c1nc(Nc2ccc([N+](=O)[O-])cc2O)sc2ccccc12", "growth", 40.4),
    ("COc1ccc(C2CC(c3cccc(OCCCCOc4cccc(C5=NOC(c6ccc(OC)cc6)C5)c4)c3)=NO2)cc1 (stereo not drawn)", "growth", 103),
    ("CC1=C(C)C(=O)C(Nc2cccc(C(=O)OC(C)(C)C)c2)=C(Cl)C1=O", "growth", 92.4),
    ("COc1cc2oc(-c3cccc(NC(=O)[C@@H](N)C(C)C)c3)cc(=O)c2c(OC)c1OC", "growth", 103),
    ("CC(C)Sc1nc(-c2ccccc2)c(C#N)c(N2CCOCC2)n1", "growth", 65),
    ("O=C(/C=C/c1cccc(C(F)(F)F)c1)Nc1cccc(C(F)(F)F)c1", "growth", 33.1),
    ("Cc1ccc2c(n1)C(=O)C(Cl)=C(Nc1cccc(C)c1C)C2=O", "growth", -10.6),
    ("N#Cc1c(-c2ccc(F)cc2)cc(-c2c[nH]c3ccccc23)nc1-c1c[nH]c2ccccc12", "growth", 100),
    ("C/C(=N\\NC(=O)Nc1ccccc1)c1nnn(-c2ccc([N+](=O)[O-])cc2)c1C", "growth", 94.7),
]

Measured values drawn from PubChem BioAssay (NCI) for this set.
